system: AtT-20 pituitary cells; assay: MIF release from pituitary (AtT-20) cells (Western blotting); format: cell-based, mouse; conditions: 1-100 ng/ml
Assay metric: MIF release from pituitary cells

**Query** # lookup: MIF release from pituitary cells of IL-6: recombinant murine IL-6 (protein, UniProt P08505 25-211, looked up) Interleukin-6: FPTSQVRRGDFTEDTTPNRPVYTTSQVGGLITHVLWEIVEMRKELCNGNSDCMNNDDALAENNLKLPEIQRNDGCYQTGYNQEICLLKISSGLLEYHSYLEYMKNNLKDNKKDKARVLQRDTETLIHIFNQEVKDLHKIVLPTPISNALLTDKLESQKEWLRTKTIQFILKSLEEFLKVTLRSTRQT
**Result** not released

**Query** # lookup: MIF release from pituitary cells of IL-1β: recombinant murine IL-1β (protein, UniProt P10749 118-269, looked up) Interleukin-1 beta: VPIRQLHYRLRDEQQKSLVLSDPYELKALHLNGQNINQQVIFSMSFVQGEPSNDKIPVALGLKGKNLYLSCVMKDGTPTLQLESVDPKQYPKKKMEKRFVFNKIEVKSKVEFESAEFPNWYISTSQAEHKPVFLGNNSGQDIIDFTMESVSS
**Result** not released

**Query** # lookup: MIF release from pituitary cells of IFNγ: recombinant murine IFNγ (protein, UniProt P01580 23-155, looked up) Interferon gamma: HGTVIESLESLNNYFNSSGIDVEEKSLFLDIWRNWQKDGDMKILQSQIISFYLRLFEVLKDNQAISNNISVIESHLITTFFSNSKAKKDAFMSIAKFEVNNPQVQRQAFNELIRVVHQLLPESSLRKRKRSRC
**Result** not released
